Experiment: NCI Yeast Anticancer Drug Screen. Data for the sgs1 mgt1 strain (AID 161);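 note: 0% = growth of cultures given vehicle only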
Conditions: S. cerevisiae sgs1 mgt1 strain, at 50.0 µM, stronger effect = higher value
This is part of a sample that, as a whole, favours compounds with a hit. Of some 79,000 tested, about 15% had one in any assay. Where a SMILES comes first, the peptide text is derived from it. [ ]: non-standard residue; d: D form. ξ: configuration not given here. ξA = CC(N)C(=O)O
growth inhibition reference

>  <compound>
O=C(CCBr)Nc1ccccc1

>  <growth inhibition / %>
-7.15

$$$$
>  <compound>
Oc1cc2ccc3c(c2cc1O)CCc1cn[nH]c1-3

>  <growth inhibition / %>
17.5

$$$$
>  <compound>
CCCCC/C(C)=C(\C#N)C(=O)OC

>  <growth inhibition / %>
-19.2

$$$$
>  <compound>
OCc1ccc2[n+](c1)CCC1c3ccccc3NC21 (stereo unspecified)

>  <growth inhibition / %>
-18.6

$$$$
>  <compound>
CCN(CC)/[N+]([O-])=N/OC

>  <growth inhibition / %>
10.9

$$$$
>  <compound>
CCCCC1(C(=O)NC(=Nc2ccccc2)Nc2ccccc2)CCOC1=O (stereo unspecified)

>  <growth inhibition / %>
-2.55

$$$$
>  <compound>
COc1ccc2c(c1OC)C1CCCCC1SCC2=O (stereo unspecified)

>  <growth inhibition / %>
0.7

$$$$
>  <compound>
C/C(CC(=O)Nc1cccc([N+](=O)[O-])c1)=N\NC(=O)CC#N

>  <growth inhibition / %>
0.55

$$$$
>  <compound>
Nc1nc2sc3ccccc3c(=O)n2n1

>  <growth inhibition / %>
11.5

$$$$
>  <compound>
CCN(CC)CCCNc1c2c(nc3ccc(Cl)cc13)CCCC2

>  <growth inhibition / %>
0.6

$$$$
>  <compound>
COC(=O)[C@H]1C=C[C@H](OC2OC(COC(C)=O)C(OC(C)=O)C(OC(C)=O)C2OC(C)=O)n2c(=O)n(-c3ccccc3)c(=O)n21 (stereo partly specified)

>  <growth inhibition / %>
-1.25

$$$$
>  <compound>
CCCc1c(N)nc(N)nc1N

>  <growth inhibition / %>
-5.7

$$$$
>  <compound>
O=C(c1ccc(O)c(C(=O)O)c1)c1ccc(O)c(C(=O)O)c1

>  <growth inhibition / %>
-5.3

$$$$
>  <compound>
CN(CC(=O)O)C(=N)N

>  <growth inhibition / %>
-19.9

$$$$
>  <compound>
O=C([O-])C[n+]1ccccc1

>  <growth inhibition / %>
-14.5

$$$$
>  <compound>
N#CCSc1c(-c2ccccc2)c(=O)n(-c2ccccc2)c(=S)n1-c1ccccc1

>  <growth inhibition / %>
-2.3

$$$$
>  <compound>
CC(NC(=O)CNC(=O)CNC(=O)CNC(=O)CN)C(=O)O (stereo unspecified) (H-GGGG[ξA]-OH)

>  <growth inhibition / %>
-8.55

$$$$
>  <compound>
[N-]=[N+]=Nc1nn2cnnc2c2[nH]c3ccccc3c12

>  <growth inhibition / %>
4.25

$$$$
>  <compound>
CC(=O)Nc1ccc2c(c1)Cc1cc(Cl)c(Cl)cc1-2

>  <growth inhibition / %>
31.7

$$$$
>  <compound>
CCN1CCCC(Nc2nc(Nc3cc(Cl)cc(Cl)c3)nc3ccc(Cl)cc23)C1 (stereo unspecified)

>  <growth inhibition / %>
97.5

$$$$
>  <compound>
CC(=O)Cc1ccc(Cl)cc1[N+](=O)[O-]

>  <growth inhibition / %>
-8.5

$$$$
>  <compound>
CCN(c1ccccc1)S(=O)(=O)c1ccccc1N

>  <growth inhibition / %>
10.7

$$$$
>  <compound>
Cc1cc(Cc2c(F)c(F)c(C(c3cc(C)no3)c3c(F)c(F)c(F)c(F)c3F)c(F)c2F)on1 (stereo unspecified)

>  <growth inhibition / %>
5.8

$$$$
>  <compound>
CS(=O)(=O)N(CCC#N)c1ccc(C=O)cc1

>  <growth inhibition / %>
-7.4

$$$$
>  <compound>
O=C(Nc1ccc(S(=O)(=O)NC2CCCCC2)cc1)OC1CCCCCC1

>  <growth inhibition / %>
7.75

$$$$
>  <compound>
CC(=O)OC1/C=C(/C)CCC2OC2(C)CC2OC(=O)C3(CC3)C12 (stereo unspecified)

>  <growth inhibition / %>
-2

$$$$
>  <compound>
CCOc1ccccc1C=C1c2ccccc2C(=O)c2ccccc21

>  <growth inhibition / %>
-3.6

$$$$
>  <compound>
COc1cc(C(C#N)NNC(=O)c2ccccc2O)ccc1O (stereo unspecified)

>  <growth inhibition / %>
44.7

$$$$
>  <compound>
O=CNC1(CO)CCCCC1

>  <growth inhibition / %>
-7.05

$$$$
>  <compound>
COC(=O)C(=O)C(C(=O)C(=O)Nc1ccccc1[N+](=O)[O-])c1nc2ccc([N+](=O)[O-])cc2[nH]c1=O (stereo unspecified)

>  <growth inhibition / %>
5

$$$$
>  <compound>
O=P(CCCCCCCCCCP(=O)(c1ccccc1)c1ccccc1)(c1ccccc1)c1ccccc1

>  <growth inhibition / %>
23.5

$$$$
>  <compound>
O=C(Oc1ccc2c(=O)cc(-c3ccccc3)oc2c1OC(=O)c1ccccc1)c1ccccc1

>  <growth inhibition / %>
-0.85

$$$$
>  <compound>
O=C(CCn1[nH]c(=O)c(Cl)c(Cl)c1=O)NOCCCc1ccccc1

>  <growth inhibition / %>
-8.5

$$$$
>  <compound>
O=C1c2ccccc2-c2c1c1ccccc1c(=O)n2Cc1ccco1

>  <growth inhibition / %>
-2.8

$$$$
>  <compound>
COc1ccc2oc(C(=O)O)cc2c1

>  <growth inhibition / %>
-9.05

$$$$
>  <compound>
Cn1c(=O)c2c(-c3ccccc3)onc2n(C)c1=O

>  <growth inhibition / %>
22.4

$$$$
>  <compound>
COC(=O)n1c(CBr)c(Br)c2ccccc21

>  <growth inhibition / %>
-3.65

$$$$
>  <compound>
O=c1oc2ccc(Cl)cc2c(=O)n1-c1cc(Cl)ccc1[N+](=O)[O-]

>  <growth inhibition / %>
-6.8

$$$$
>  <compound>
COC(=O)C(=C/c1ccc(OC)cc1)/C(C(=O)O)=C(/C)c1ccccc1

>  <growth inhibition / %>
-14.2

$$$$
>  <compound>
CCOC(=O)C(Br)(C(=O)OCC)C(C)C

>  <growth inhibition / %>
-16.8

$$$$
>  <compound>
CCC(C(=O)O)C1=CCCCC1 (stereo unspecified)

>  <growth inhibition / %>
16.2

$$$$
